tested on: 786-0; assay: Growth inhibition of human 786-0 cells assessed as cell growth at 10 uM after 48 hrs by sulforhodamine B assay; assay type: functional; conditions: 786-0, 48 h, read-out: Activity
Field: growth at 10 µM. Provide a value for each of the compounds that follow.
The reply should contain only the number, in %.

Incoming: Given the entry O=C(Nc1cccc(-n2cc(-c3ccncc3)c(-c3ccc(Cl)c(O)c3)n2)c1)c1ccc(Cl)c(C(F)(F)F)c1 , report its measured growth at 10 µM.
Outgoing: 108

Incoming: Returns the measured growth at 10 µM for the input compound. Input: COc1cc(-c2nn(-c3cccc(NC(=O)Nc4cc(C(F)(F)F)cc(C(F)(F)F)c4)c3)cc2-c2ccncc2)ccc1Cl
Outgoing: -71.1

Incoming: Name the recorded growth at 10 µM for COc1cc(-c2nn(-c3cccc(NC(=O)c4ccc(Br)c(C)c4)c3)cc2-c2ccncc2)ccc1Cl .
Outgoing: 85.9

Incoming: # input compound: Cc1cc(C(=O)Nc2cccc(-n3cc(-c4ccncc4)c(-c4ccc(Cl)c(O)c4)n3)c2)ccc1Br ; wanted: its growth at 10 µM
Outgoing: 106

Incoming: Given O=C(Nc1cccc(-n2cc(-c3ccncc3)c(-c3ccc(Cl)c(O)c3)n2)c1)Nc1cccc(C(F)(F)F)c1 , state its recorded growth at 10 µM.
Outgoing: 34.4

Incoming: Reported growth at 10 µM for COc1cc(-c2nn(-c3cccc(NC(=O)Nc4cccc(C(F)(F)F)c4)c3)cc2-c2ccncc2)ccc1Cl : what is it?
Outgoing: -15

Incoming: Data request, read-out growth at 10 µM, for O=C(Nc1cccc(-n2cc(-c3ccncc3)c(-c3ccc(Cl)c(O)c3)n2)c1)c1ccc(N2CCOCC2)c(C(F)(F)F)c1
Outgoing: 59.6

Incoming: Entry COc1cc(-c2nn(-c3cccc(NC(=O)Nc4ccc(Cl)c(C(F)(F)F)c4)c3)cc2-c2ccncc2)ccc1Cl : reported growth at 10 µM = ?
Outgoing: 15.1

Incoming: Please give the measured growth at 10 µM for this compound: O=C(Nc1cccc(-n2cc(-c3ccncc3)c(-c3ccc(Cl)c(O)c3)n2)c1)Nc1ccc(Cl)c(Cl)c1
Outgoing: 30.1

---

test system: OVCAR-5; assay: Growth inhibition of human OVCAR5 cells after 48 hrs by sulforhodamine B assay; assay type: functional; conditions: OVCAR-5, 48 h
Consider the following molecules; for each one, report its GI50.
Numbers only here, please. The scale is nM.

Incoming: Record request: GI50 value, item O=C(Nc1cccc(-n2cc(-c3ccncc3)c(-c3ccc(Cl)c(O)c3)n2)c1)Nc1ccc(Cl)c(Cl)c1
Outgoing: 2400

Incoming: Please look up its GI50: COc1cc(-c2nn(-c3cccc(NC(=O)Nc4ccc(Cl)c(Cl)c4)c3)cc2-c2ccncc2)ccc1Cl
Outgoing: 2130

Incoming: Fill in: GI50 of COc1cc(-c2nn(-c3cccc(NC(=O)c4ccc(N5CCOCC5)c(C(F)(F)F)c4)c3)cc2-c2ccncc2)ccc1Cl is ___
Outgoing: 1450

Incoming: Endpoint output: GI50 of COc1cc(-c2nn(-c3cccc(NC(=O)Nc4ccc(Cl)c(C(F)(F)F)c4)c3)cc2-c2ccncc2)ccc1Cl . Value?
Outgoing: 3090

Incoming: GET /values?readout=GI50&item= COc1cc(-c2nn(-c3cccc(NC(=O)Nc4cccc(C(F)(F)F)c4)c3)cc2-c2ccncc2)ccc1Cl
Outgoing: 1270

---

Exercise: for every item that follows, state its recorded growth at 50 µM.
system: CAKI-1; experiment: Growth inhibition of human CAKI-1 cells assessed as cell growth at 5X10'-5 M after 48 hrs by sulforhodamine B assay; type: functional; details: CAKI-1, 48 h, read-out: Activity
Your answer should be a plain number; it is taken to be in %.

Incoming: Data request, read-out growth at 50 µM, for COc1cc(-c2nn(-c3cccc(NC(=O)Nc4cccc(C(F)(F)F)c4)c3)cc2-c2ccncc2)ccc1Cl
Outgoing: -21

Incoming: State the recorded growth at 50 µM for this entry: COc1cc(-c2nn(-c3cccc(NC(=O)Nc4cc(C(F)(F)F)cc(C(F)(F)F)c4)c3)cc2-c2ccncc2)ccc1Cl
Outgoing: -50

Incoming: I am curious: what growth at 50 µM value has been reported for COc1cc(-c2nn(-c3cccc(NC(=O)Nc4ccc(Cl)c(Cl)c4)c3)cc2-c2ccncc2)ccc1Cl ?
Outgoing: -13

Incoming: Which growth at 50 µM is reported for this compound? COc1cc(-c2nn(-c3cccc(NC(=O)c4cccc(C(F)(F)F)c4)c3)cc2-c2ccncc2)ccc1Cl
Outgoing: 17

---

test system: HL-60(TB); experiment: Growth inhibition of human HL-60(TB) cells assessed as cell growth at 10 uM after 48 hrs by sulforhodamine B assay; format: functional; conditions: HL-60, 48 h, read-out: Activity
Quantity Kind: growth at 10 µM (%)
// units = %; emit number, no label

Incoming: What is its growth at 10 µM for HL-60(TB)? Entry: COc1cc(-c2nn(-c3cccc(NC(=O)c4ccc(Cl)c(C(F)(F)F)c4)c3)cc2-c2ccncc2)ccc1Cl
Outgoing: 3.23

Incoming: Enter reported growth at 10 µM observed with HL-60(TB) for COc1cc(-c2nn(-c3cccc(NC(=O)c4cccc(C(F)(F)F)c4)c3)cc2-c2ccncc2)ccc1Cl
Outgoing: 1.93

Incoming: # get_value(readout= growth at 10 µM, system= HL-60(TB)) for O=C(Nc1cccc(-n2cc(-c3ccncc3)c(-c3ccc(Cl)c(O)c3)n2)c1)Nc1ccc(Cl)c(C(F)(F)F)c1
Outgoing: -11.2

Incoming: Form: Entry = COc1cc(-c2nn(-c3cccc(NC(=O)Nc4cc(C(F)(F)F)cc(C(F)(F)F)c4)c3)cc2-c2ccncc2)ccc1Cl | System = HL-60(TB) | growth at 10 µM = ____
Outgoing: -20.2

Incoming: Give the reported growth at 10 µM for COc1cc(-c2nn(-c3cccc(NC(=O)Nc4ccccc4)c3)cc2-c2ccncc2)ccc1Cl (system: HL-60(TB)).
Outgoing: 91.3

Incoming: Value wanted: growth at 10 µM (HL-60(TB)) of entry O=C(Nc1cccc(-n2cc(-c3ccncc3)c(-c3ccc(Cl)c(O)c3)n2)c1)c1ccc(Cl)c(C(F)(F)F)c1
Outgoing: 196

---

Would you mind telling me the reported TGI of each entry?
experiment: Growth inhibition of human Hs 578T cells after 48 hrs by sulforhodamine B assay; format: functional

Incoming: I have this compound here, COc1cc(-c2nn(-c3cccc(NC(=O)c4ccc(Cl)c(C(F)(F)F)c4)c3)cc2-c2ccncc2)ccc1Cl , and I need its recorded TGI.
Outgoing: > 32.5 µM

Incoming: Which value of TGI has been reported for COc1cc(-c2nn(-c3cccc(NC(=O)c4ccc(N5CCOCC5)c(C(F)(F)F)c4)c3)cc2-c2ccncc2)ccc1Cl in the records?
Outgoing: > 100 µM

Incoming: Find the recorded TGI belonging to COc1cc(-c2nn(-c3cccc(NC(=O)Nc4ccc(Cl)c(Cl)c4)c3)cc2-c2ccncc2)ccc1Cl and report it.
Outgoing: > 50 µM

Incoming: Name the recorded TGI for COc1cc(-c2nn(-c3cccc(NC(=O)c4ccccc4)c3)cc2-c2ccncc2)ccc1Cl .
Outgoing: > 100 µM

---

system: HCT-116; test: Growth inhibition of human HCT116 cells after 48 hrs by sulforhodamine B assay; type: functional; conditions: HCT-116, 48 h
Quantity Kind: GI50 (nM)
Dear colleague, please return just the value in nM, with no unit written.

Incoming: Recorded GI50 of O=C(Nc1cccc(-n2cc(-c3ccncc3)c(-c3ccc(Cl)c(O)c3)n2)c1)c1ccc(N2CCOCC2)c(C(F)(F)F)c1 , please.
Outgoing: 2870

Incoming: Quick one: GI50 for O=C(Nc1cccc(-n2cc(-c3ccncc3)c(-c3ccc(Cl)c(O)c3)n2)c1)Nc1cc(C(F)(F)F)cc(C(F)(F)F)c1 ?
Outgoing: 428

Incoming: Recorded GI50 for O=C(Nc1cccc(-n2cc(-c3ccncc3)c(-c3ccc(Cl)c(O)c3)n2)c1)Nc1ccc(Cl)c(Cl)c1 , please?
Outgoing: 1190

Incoming: For COc1cc(-c2nn(-c3cccc(NC(=O)c4cccc(C(F)(F)F)c4)c3)cc2-c2ccncc2)ccc1Cl , what is its reported GI50?
Outgoing: 1670

---

What growth at 10 µM was measured for each of the following?
system: HOP-62; test: Growth inhibition of human HOP62 cells assessed as cell growth at 10 uM after 48 hrs by sulforhodamine B assay; format: functional; settings: HOP-62, 48 h, read-out: Activity

Incoming: Given the molecule O=C(Nc1cccc(-n2cc(-c3ccncc3)c(-c3ccc(Cl)c(O)c3)n2)c1)c1ccc(N2CCOCC2)c(C(F)(F)F)c1 , what is its reported growth at 10 µM?
Outgoing: 40.4%

Incoming: Tell me the measured growth at 10 µM of COc1cc(-c2nn(-c3cccc(NC(=O)Nc4cc(C(F)(F)F)cc(C(F)(F)F)c4)c3)cc2-c2ccncc2)ccc1Cl , please.
Outgoing: -77.6%

Incoming: Requested read-out: growth at 10 µM. Entry: COc1cc(-c2nn(-c3cccc(NC(=O)Nc4ccc(Cl)c(Cl)c4)c3)cc2-c2ccncc2)ccc1Cl
Outgoing: 10.2%

Incoming: growth at 10 µM lookup needed for O=C(Nc1cccc(-n2cc(-c3ccncc3)c(-c3ccc(Cl)c(O)c3)n2)c1)Nc1cccc(C(F)(F)F)c1 , thanks.
Outgoing: 38.1%

Incoming: For the molecule O=C(Nc1cccc(-n2cc(-c3ccncc3)c(-c3ccc(Cl)c(O)c3)n2)c1)Nc1ccc(Cl)c(C(F)(F)F)c1 , what growth at 10 µM is on record?
Outgoing: -17%
